Target: rat liver FBPase (Rattus norvegicus)
Sequence (P19112 2-363 limits assumed): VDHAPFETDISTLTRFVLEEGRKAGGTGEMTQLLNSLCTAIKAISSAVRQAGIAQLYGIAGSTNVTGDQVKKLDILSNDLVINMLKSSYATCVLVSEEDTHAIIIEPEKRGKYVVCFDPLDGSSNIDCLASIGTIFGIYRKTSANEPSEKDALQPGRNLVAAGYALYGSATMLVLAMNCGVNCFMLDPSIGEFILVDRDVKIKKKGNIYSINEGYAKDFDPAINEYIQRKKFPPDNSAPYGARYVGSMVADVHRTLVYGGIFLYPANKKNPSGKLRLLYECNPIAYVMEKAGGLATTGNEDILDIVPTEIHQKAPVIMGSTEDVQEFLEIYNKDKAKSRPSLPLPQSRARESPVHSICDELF
Assay: Inhibition of Rat Liver FBPase
Conditions: read-out: IC50 (rlFBPase)
RECORDED_ENDPOINT: pIC50
The quantity pIC50 is defined as the negative base-10 logarithm of the molar concentration.

Response field pIC50 (rat liver FBPase (Rattus norvegicus)) for item Nc1ncnc2c1ncn2[C@@H]1O[C@H](COP(=O)(O)O)[C@@H](O)[C@H]1O [AMP, reference compound] : 4.70

Every entry's value here was drawn from patent US7312219B2.
